Molecular target: Sodium-dependent noradrenaline transporter (Homo sapiens)
Sequence (P23975 whole entry): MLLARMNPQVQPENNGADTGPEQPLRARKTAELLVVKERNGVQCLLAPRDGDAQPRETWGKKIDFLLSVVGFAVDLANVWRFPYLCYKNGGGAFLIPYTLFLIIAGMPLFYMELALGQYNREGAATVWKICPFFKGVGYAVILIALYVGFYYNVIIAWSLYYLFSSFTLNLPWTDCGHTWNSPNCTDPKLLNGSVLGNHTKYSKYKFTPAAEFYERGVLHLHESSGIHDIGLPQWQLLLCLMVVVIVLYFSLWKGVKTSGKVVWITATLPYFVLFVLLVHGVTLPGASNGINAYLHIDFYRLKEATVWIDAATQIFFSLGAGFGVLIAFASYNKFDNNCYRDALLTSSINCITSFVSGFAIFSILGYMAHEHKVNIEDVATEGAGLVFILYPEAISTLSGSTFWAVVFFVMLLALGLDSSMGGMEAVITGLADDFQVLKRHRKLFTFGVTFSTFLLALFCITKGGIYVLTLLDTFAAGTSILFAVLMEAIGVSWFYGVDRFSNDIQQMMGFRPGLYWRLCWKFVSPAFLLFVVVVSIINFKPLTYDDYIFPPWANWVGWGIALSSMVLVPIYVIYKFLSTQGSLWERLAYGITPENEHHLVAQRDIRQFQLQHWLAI
Test: Inhibition of NET (unknown origin) expressed in HEK293 cells assessed as reduction in norepinephrine reuptake
Binarize EC50 at 300 nM; below is Criterion met, at or above is Criterion not met.

> print(dat)
                                 testsmiles        answerlabel
1  CCn1nnc(CN2CCN(C(=O)c3ccc(C[C@@H]4CC[C@H]([C@H](O)c5ccccc5)N4)cc3)CC2)n1  Criterion not met
2  O=C(c1ccc(C[C@@H]2CC[C@H]([C@H](O)c3ccccc3)N2)cc1)N1CCN(Cc2ncn(CC(F)F)n2)CC1      Criterion met
3  O=C(c1ccc(C[C@@H]2CC[C@H]([C@H](O)c3ccccc3)N2)cc1)N1CCN(Cc2ncn(CC(F)(F)F)n2)CC1      Criterion met
4  O=C(c1ccc(C[C@@H]2CC[C@H]([C@H](O)c3ccccc3)N2)cc1)N1CCN(Cc2nnn(CC(F)(F)F)n2)CC1  Criterion not met
5  Cc1noc(-c2cccc(CN3CCN(C(=O)c4ccc(C[C@@H]5CC[C@H]([C@H](O)c6ccccc6)N5)cc4)CC3)n2)n1      Criterion met
6  O=C(c1ccc(C[C@@H]2CC[C@H]([C@H](O)c3ccccc3)N2)cc1)N1CCN(Cc2nnn(CC(F)F)n2)CC1  Criterion not met
7  O=C(c1ccc(C[C@@H]2CC[C@H]([C@H](O)c3ccccc3)N2)cc1)N1CCN(Cc2nnn(CC3CC3)n2)CC1  Criterion not met
8  O=C(c1ccc(C[C@@H]2CC[C@H]([C@H](O)c3ccccc3)N2)cc1)N1CCN(Cc2ccccn2)CC1  Criterion not met
9  Cc1nnc(-c2cccc(CN3CCN(C(=O)c4ccc(C[C@@H]5CC[C@H]([C@H](O)c6ccccc6)N5)cc4)CC3)n2)o1      Criterion met

###

Assay: Stability in dog hepatocytes assessed as parent compound remaining up to 60 mins
Type: ADME, cell-based, Canis lupus familiaris, Hepatocyte
Details: read-out: Stability
measurementLabel: remaining at 1 h (%)

> print(dat)
                                 testsmiles  datavalue
1  O=C(c1ccc(C[C@@H]2CC[C@H]([C@H](O)c3ccccc3)N2)cc1)N1CCN(Cc2nnn(CC(F)(F)F)n2)CC1        100

###

Test: Stability in rat hepatocytes assessed as parent compound remaining up to 60 mins
Format: ADME, cell-based, Hepatocyte
Details: read-out: Stability
measurementLabel: remaining at 1 h (%)

> print(dat)
                                 testsmiles  measurementlabel  datavalue
1  O=C(c1ccc(C[C@@H]2CC[C@H]([C@H](O)c3ccccc3)N2)cc1)N1CCN(Cc2nnn(CC(F)(F)F)n2)CC1  remaining at 1 h         73

###

Target: UniProtKB Q12809
Sequence (Q12809 whole entry): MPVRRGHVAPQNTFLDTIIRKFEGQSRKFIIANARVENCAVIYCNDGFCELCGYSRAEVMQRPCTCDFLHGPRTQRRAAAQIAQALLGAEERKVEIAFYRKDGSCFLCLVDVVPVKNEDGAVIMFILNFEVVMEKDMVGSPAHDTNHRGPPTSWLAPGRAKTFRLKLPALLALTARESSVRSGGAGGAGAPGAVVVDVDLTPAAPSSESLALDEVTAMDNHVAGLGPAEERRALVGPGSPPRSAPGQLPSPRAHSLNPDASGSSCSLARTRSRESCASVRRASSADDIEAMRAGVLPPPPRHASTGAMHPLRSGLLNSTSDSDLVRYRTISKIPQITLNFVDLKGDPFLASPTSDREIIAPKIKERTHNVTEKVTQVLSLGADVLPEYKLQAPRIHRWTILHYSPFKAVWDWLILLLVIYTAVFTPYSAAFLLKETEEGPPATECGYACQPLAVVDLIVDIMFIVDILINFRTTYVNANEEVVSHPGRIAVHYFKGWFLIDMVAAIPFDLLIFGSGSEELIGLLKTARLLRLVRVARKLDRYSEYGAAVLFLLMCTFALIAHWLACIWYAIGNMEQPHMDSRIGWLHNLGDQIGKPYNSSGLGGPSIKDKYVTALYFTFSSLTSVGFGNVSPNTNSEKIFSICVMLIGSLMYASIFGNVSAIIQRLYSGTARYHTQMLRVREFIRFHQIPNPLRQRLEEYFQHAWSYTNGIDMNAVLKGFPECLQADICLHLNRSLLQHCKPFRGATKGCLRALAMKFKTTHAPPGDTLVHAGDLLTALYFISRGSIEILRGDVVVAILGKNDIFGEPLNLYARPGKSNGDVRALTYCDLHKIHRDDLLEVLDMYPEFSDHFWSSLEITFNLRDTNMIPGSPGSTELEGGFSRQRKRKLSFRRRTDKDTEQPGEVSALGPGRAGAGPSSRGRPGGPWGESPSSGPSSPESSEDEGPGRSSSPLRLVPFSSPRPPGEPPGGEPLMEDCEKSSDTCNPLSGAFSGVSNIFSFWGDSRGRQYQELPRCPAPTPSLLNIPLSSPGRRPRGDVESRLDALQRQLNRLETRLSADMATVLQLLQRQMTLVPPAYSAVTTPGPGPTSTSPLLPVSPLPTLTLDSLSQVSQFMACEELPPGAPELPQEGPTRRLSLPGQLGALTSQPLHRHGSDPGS
pIC50: −log10 of the molar value.
The entries below come with measured pIC50 values attached.
measurementLabel: pIC50

> print(dat)
                                 testsmiles  datavalue
1  Cc1noc(-c2cccc(CN3CCN(C(=O)c4ccc(C[C@@H]5CC[C@H]([C@H](O)c6ccccc6)N5)cc4)CC3)n2)n1     < 4.22
2  CCn1nnc(CN2CCN(C(=O)c3ccc(C[C@@H]4CC[C@H]([C@H](O)c5ccccc5)N4)cc3)CC2)n1     < 4.22
3  O=C(c1ccc(C[C@@H]2CC[C@H]([C@H](O)c3ccccc3)N2)cc1)N1CCN(Cc2ncn(CC(F)(F)F)n2)CC1     < 4.22
